Where a name gives a salt, the structure may show the parent alone.
OBSERVABLE: melting point (°C)
Unit °C implied. Number only.

Return reported melting point; argument: O=C(Oc1ccccc1Cl)N1CCN2CCC1CC2 (as salt: hydrochloride)
251.2

###

Where a name gives a salt, the structure may show the parent alone.
OBSERVABLE: melting point (°C)
Expressed in °C, but write only the number.

Illustrative cases are given below, each with its answer.
>>> quantitative_readout("O=C(Oc1ccc(Cl)cc1)N1CCN2CCC1CC2 (as salt: hydrochloride)")
257.5
>>> quantitative_readout("Cc1cc(OC(=O)N2CCN3CCC2CC3)cc(C)c1Br (as salt: hydrochloride)")
239.5
>>> quantitative_readout("O=C(Oc1ccc(Cl)c(Cl)c1)N1CCN2CCC1CC2 (as salt: hydrochloride)")
260.2
>>> quantitative_readout("COC(=O)N1CCN2CCC1CC2 (as salt: hydrochloride)")
198.7
>>> quantitative_readout("O=C(Oc1cccc(Br)c1)N1CCN2CCC1CC2 (as salt: hydrochloride)")
224.5
>>> quantitative_readout("O=C(Oc1ccc(C2CCc3ccccc32)cc1)N1CCN2CCC1CC2 (stereo not drawn) (as salt: hydrochloride)")
168.7

Fill in the blank: the reported melting point of O=C(Oc1ccc(OCc2ccccc2)cc1)N1CCN2CCC1CC2 (as salt: hydrochloride) is ____.
278.5

Another compound to look at: O=C(Oc1ccc(C2CCCCC2)cc1)N1CCN2CCC1CC2 (as salt: hydrochloride)
294.1

Next compound up: O=C(Oc1cccc(-c2cccnc2)c1)N1CCN2CCC1CC2 (as salt: hydrochloride)
210.2

// same read-out, input: CCCCCCCCOC(=O)N1CCN2CCC1CC2 (as salt: hydrochloride)
217.5

Could you do the same for `O=C(Oc1ccc2cc(Br)ccc2c1)N1CCN2CCC1CC2` , please?
174.2

Further, for COc1cccc(OC(=O)N2CCN3CCC2CC3)c1 (as salt: hydrochloride) ?
204.3

###

Where a name gives a salt, the structure may show the parent alone.
OBSERVABLE: melting point (°C)
Lab book: enter the figure in °C, no units written.

>>> quantitative_readout("O=C(Oc1ccccc1)N1CCN2CCC1CC2")
254.8
>>> quantitative_readout("O=C(Oc1ccc(Br)c(Cl)c1)N1CCN2CCC1CC2 (as salt: hydrochloride)")
234.7
>>> quantitative_readout("COc1ccc(OC(=O)N2CCN3CCC2CC3)cc1 (as salt: hydrochloride)")
269.7

We now examine a further molecule.
For the molecule O=C(Oc1cccc(I)c1)N1CCN2CCC1CC2 (as salt: hydrochloride) , what melting point is on record?
243.8
